experimentalTarget: 5-hydroxytryptamine receptor 1B (Rattus norvegicus, UniProt P28564)
Sequence (P28564 whole entry): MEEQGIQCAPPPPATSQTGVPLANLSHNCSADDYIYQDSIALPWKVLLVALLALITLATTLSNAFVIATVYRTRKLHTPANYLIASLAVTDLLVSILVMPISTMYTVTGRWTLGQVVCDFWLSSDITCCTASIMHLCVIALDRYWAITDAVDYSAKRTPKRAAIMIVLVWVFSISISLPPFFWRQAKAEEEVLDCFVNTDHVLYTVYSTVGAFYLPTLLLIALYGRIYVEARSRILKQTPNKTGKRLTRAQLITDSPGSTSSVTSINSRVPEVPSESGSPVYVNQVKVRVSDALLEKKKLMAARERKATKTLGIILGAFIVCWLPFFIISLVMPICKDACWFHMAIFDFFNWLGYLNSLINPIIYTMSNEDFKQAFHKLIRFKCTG
outcomeMeasure: IC50 (µM)

Examples with their reported IC50 follow.
molecule	IC50 / µM
COc1cccc2c1CC(NCCCCN1C(=O)c3ccccc3C1=O)CO2 (centres undefined)	7
CCCN(CCCCNC(=O)c1ccc(F)cc1)C1COc2cccc(OC)c2C1 (centres undefined)	3
CCCN(CCCCNS(=O)(=O)c1ccc(C)cc1)C1COc2cccc(OC)c2C1 (single isomer, unassigned; (-))	20

a = CCCN(CCCN1C(=O)CC2(CCCC2)CC1=O)C1COc2cccc(OC)c2C1 (centres undefined)
b = CCCN(CCCCN1C(=O)CC2(CCCC2)CC1=O)C1COc2cccc(OC)c2C1.O=C(O)C(=O)O (single isomer, unassigned; (+))
Q) Please compare: a and b . Report which one has the smaller IC50 value. To answer, give the label that identifies your chosen option.
A) b
(b: 10 µM, a: 20 µM)

1 = CCCN(CCNC(C)=O)C1COc2cccc(OC)c2C1 (centres undefined)
2 = CCCN(CCCCn1c(=O)oc2cccnc21)C1COc2cccc(OC)c2C1 (centres undefined)
Q) Between 1 and 2 , which one shows the smaller IC50 number? Record your answer as the label of the chosen record.
A) 2

I = CCCN(CCCCN1C(=O)C2CCCC2C1=O)C1COc2cccc(OC)c2C1 (single isomer, unassigned; (-))
II = CCCN(CCCCN1C(=O)c2ccccc2C1=O)C1COc2cccc(OC)c2C1 (centres undefined)
Q) Which numeric IC50 is bigger, that of I or that of II ? Your answer should be the label attached to the chosen record.
A) I

A = CCCN(CCCCN1C(=O)CC2(CCCC2)CC1=O)C1COc2cccc(OC)c2C1.O=C(O)C(=O)O (stereo in doubt; 9g)
B = CCCN(CCCCCN1C(=O)CC2(CCCC2)CC1=O)C1COc2cccc(OC)c2C1 (centres undefined)
Q) For A and B , which recorded IC50 is lower? Give the chosen item's label as your response.
A) A

---

pIC50: −log10 of the molar value.
pIC50 tested on Alpha-1A adrenergic receptor (Bos taurus): recorded values
Sequence (P18130 whole entry): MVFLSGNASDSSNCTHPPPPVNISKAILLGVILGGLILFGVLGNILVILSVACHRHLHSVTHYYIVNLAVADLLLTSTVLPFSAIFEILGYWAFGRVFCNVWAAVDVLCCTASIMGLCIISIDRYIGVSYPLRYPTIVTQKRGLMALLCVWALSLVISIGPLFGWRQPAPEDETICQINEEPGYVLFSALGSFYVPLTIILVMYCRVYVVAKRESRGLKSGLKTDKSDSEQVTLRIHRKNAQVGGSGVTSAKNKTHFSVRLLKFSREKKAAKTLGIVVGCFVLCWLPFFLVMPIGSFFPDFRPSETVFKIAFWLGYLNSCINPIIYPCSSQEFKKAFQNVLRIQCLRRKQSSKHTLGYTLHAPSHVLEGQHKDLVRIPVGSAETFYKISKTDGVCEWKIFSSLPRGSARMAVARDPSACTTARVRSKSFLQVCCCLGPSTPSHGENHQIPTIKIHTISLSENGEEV
outcomeMeasure: pIC50

molecule	pIC50
CCCN(CCCCCN1C(=O)CC2(CCCC2)CC1=O)C1COc2cccc(OC)c2C1 (stereo not given)	5.30
CCCN(CCC)C1COc2cccc(OC)c2C1 (single isomer, unassigned; (+))	5.64

I = CCCN(CCCCn1c(=O)oc2cccnc21)C1COc2cccc(OC)c2C1 (stereo not given)
II = O=C1c2ccccc2S(=O)(=O)N1CCCCN1CCN(c2ncccn2)CC1
Q) Looking only at measured pIC50, which entry is lower, I or II ? Respond with the label that goes with your answer.
A) I

---

measurementNotes: Inhibitory concentration of compound was tested as agonist activity against forskolin activated adenylate cyclase
Type: functional
pIC50: −log10 of the molar value.
outcomeMeasure: pIC50

A = CCCN(CCCCN1C(=O)CC2(CCCC2)CC1=O)C1COc2cccc(OC)c2C1.O=C(O)C(=O)O (stereo in doubt; 9g)
B = CCCN(CCCCN1C(=O)CC2(CCCC2)CC1=O)C1COc2cccc(OC)c2C1.O=C(O)C(=O)O (single isomer, unassigned; (-))
C = CCCN(CCCCN1C(=O)CC2(CCCC2)CC1=O)C1COc2cccc(OC)c2C1.O=C(O)C(=O)O (single isomer, unassigned; (+))
Q) Can you order these entries from above by pIC50? Start with the largest number and work down. // format: requested-order list of labels
A) C, A, B

---

experimentalTarget: UniProt P20288
Sequence (P20288 whole entry): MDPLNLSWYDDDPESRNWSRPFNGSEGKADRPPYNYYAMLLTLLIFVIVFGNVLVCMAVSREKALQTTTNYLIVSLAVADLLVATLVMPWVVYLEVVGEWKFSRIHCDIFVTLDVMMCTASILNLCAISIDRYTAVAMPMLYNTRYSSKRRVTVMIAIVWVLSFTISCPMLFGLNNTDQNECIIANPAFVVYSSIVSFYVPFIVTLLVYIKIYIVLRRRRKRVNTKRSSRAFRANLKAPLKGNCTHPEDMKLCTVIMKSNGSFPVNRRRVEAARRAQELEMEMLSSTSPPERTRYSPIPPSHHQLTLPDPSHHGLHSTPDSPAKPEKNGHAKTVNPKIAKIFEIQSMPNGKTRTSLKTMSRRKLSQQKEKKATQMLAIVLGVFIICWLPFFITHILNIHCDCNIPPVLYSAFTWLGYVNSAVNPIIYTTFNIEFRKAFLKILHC
measurementNotes: Binding affinity against D2 receptor in calf caudate nucleus
pIC50: −log10 of the molar value.
outcomeMeasure: pIC50

Reference set, count: 3
molecule	pIC50
CCCN(CCC)C1COc2cccc(OC)c2C1 (stereo in doubt; (-)-4)	6.68
CCCN(CCCNS(=O)(=O)c1ccc(C)cc1)C1COc2cccc(OC)c2C1 (stereo unspecified)	7.52
CCCN(CCC)C1COc2cccc(O)c2C1 (stereo unspecified)	6.40

a = CCCN(CCN1C(=O)CC2(CCCC2)CC1=O)C1COc2cccc(OC)c2C1 (stereo unspecified)
b = CCCN(CCCCN1CCCCC1)C1COc2cccc(OC)c2C1 (stereo unspecified)
c = CCCN(CCCCNS(=O)(=O)c1ccc(C)cc1)C1COc2cccc(OC)c2C1 (stereo in doubt; 15d)
Q) Ordering criterion: pIC50; begin with the maximum. # output: labels, in the requested order
A) b, c, a
(b: 7.70, c: 6.70, a: 5.52)

---

experimentalTarget: UniProtKB P20288
measurementNotes: Binding affinity against D2 receptor in calf caudate nucleus
pIC50: −log10 of the molar value.
outcomeMeasure: pIC50

I = CCCN(CCNC(C)=O)C1COc2cccc(OC)c2C1 (stereo not drawn)
II = CCCN(CCCCN1CC2CCCC2C1=O)C1COc2cccc(OC)c2C1 (stereo not drawn)
III = CCCN(CCCCN1C(=O)C2CCCC2C1=O)C1COc2cccc(OC)c2C1 (single isomer, unassigned; (+))
IV = CCCN(CCNS(=O)(=O)c1ccc(C)cc1)C1COc2cccc(OC)c2C1 (stereo in doubt; (-)-15b)
V = CCCN(CCCCN1C(=O)c2ccccc2C1=O)C1COc2cccc(OC)c2C1 (stereo not drawn)
Q) Which order do these fall in by pIC50? Give them lowest to highest. I would appreciate it if you listed the labels in the requested order.
A) I, III, IV, V, II
(I: 6.22, III: 7.00, IV: 7.30, V: 7.52, II: 8.52)

a = CCCN(CCCCNS(=O)(=O)c1ccc(C)cc1)C1COc2cccc(OC)c2C1 (single isomer, unassigned; (+))
b = CCCN(CCCCCN1C(=O)CC2(CCCC2)CC1=O)C1COc2cccc(OC)c2C1 (stereo not drawn)
Q) Input pair: a , b . Output: entry with lower pIC50. Provide the label of your selected option as the answer.
A) b
(b: 4.22, a: 7.00)

1 = CCCN(CCCCN1C(=O)c2ccccc2S1(=O)=O)C1COc2cccc(OC)c2C1 (stereo not drawn)
2 = CCCN(CCCCN1CCOCC1)C1COc2cccc(OC)c2C1 (stereo not drawn)
Q) Pick the one with the larger pIC50: 1 vs 2 Field: selected label. Fill in the label of the entry you choose.
A) 2
(2: 7.52, 1: 7.05)

I = CCCN(CCCCNS(=O)(=O)c1ccc(C)cc1)C1COc2cccc(OC)c2C1 (single isomer, unassigned; (-))
II = CCCN(CCNS(=O)(=O)c1ccc(C)cc1)C1COc2cccc(OC)c2C1 (single isomer, unassigned; (+))
Q) Which has the higher pIC50, I or II ? Please indicate the selected item by its label.
A) I

I = CCCN(CCCN1C(=O)c2ccccc2C1=O)C1COc2cccc(OC)c2C1 (stereo not drawn)
II = CCCN(CCCCN1C(=O)CC2(CCCC2)CC1=O)C1COc2cccc(OC)c2C1.O=C(O)C(=O)O (stereo in doubt; 9g)
III = CCCN(CCCON1C(=O)CC2(CCCC2)CC1=O)C1COc2cccc(OC)c2C1 (stereo not drawn)
IV = COc1cccc2c1CC(NCCCCN1C(=O)CC3(CCCC3)CC1=O)CO2 (stereo not drawn)
Q) // smallest pIC50 at index 0, largest at the end Kindly provide the labels arranged according to the requested ordering.
A) IV, I, III, II
(IV: 6.05, I: 7.10, III: 7.70, II: 8.00)

a = CCCN(CCC)C1COc2ccc3ccccc3c2C1 (stereo not drawn)
b = CCCN(CCCCN1C(=O)CC2(CCCC2)CC1=O)C1COc2cccc(OC)c2C1.O=C(O)C(=O)O (single isomer, unassigned; (-))
Q) Could you please tell me which of these two has the higher pIC50: a or b ? Answer with the label corresponding to your selection.
A) b
(b: 8.00, a: 7.00)

A = CCCN(CCCCN1C(=O)CC(C)(C)CC1=O)C1COc2cccc(OC)c2C1 (stereo not drawn)
B = CCCN(CCCCNC(=O)c1ccccc1OC)C1COc2cccc(OC)c2C1 (stereo not drawn)
Q) Hi there! Just curious which has the higher pIC50 between A and B . # reply format: chosen label
A) B

A = CCCN(CCCCN1C(=O)CC2(CCCC2)CC1=O)C1COc2cccc(OC)c2C1.O=C(O)C(=O)O (single isomer, unassigned; (+))
B = CCC[N+](C)(CCCCN1C(=O)CC2(CCCC2)CC1=O)C1COc2cccc(OC)c2C1 (stereo not drawn)
Q) Hi there, can you help? I need to know whether A or B has lower measured pIC50. Choose, then provide that item's label.
A) A

---

experimentalTarget: 5-hydroxytryptamine receptor 1B (Rattus norvegicus, UniProt P28564)
measurementNotes: Binding affinity for 5-hydroxytryptamine 1B receptor in rat cortex, striatum and globus pallidus
Assay type: tissue-based
outcomeMeasure: IC50 (µM)

compound	experimentalTarget	unitOfMeasure	IC50
CCCN(CCCCN1C(=O)CC2(CCCC2)CC1=O)C1COc2ccccc2C1 (centres undefined)	5-hydroxytryptamine receptor 1B (Rattus norvegicus, UniProt P28564)	µM	30

A = CCCN(CCC)C1COc2ccc3ccccc3c2C1 (centres undefined)
B = CCCN(CCCCNS(=O)(=O)c1ccc(C)cc1)C1COc2cccc(OC)c2C1 (stereo in doubt; 15d)
Q) IC50 comparison. Which is larger, A or B ? Respond with the label that goes with your answer.
A) A
(A: 30 µM, B: 8 µM)
